These data points were gathered from the RNAGym collection of RNA variant scans (doi:10.7554/elife.80360).

B1: CPEB3 Ribozyme (parent)
chain: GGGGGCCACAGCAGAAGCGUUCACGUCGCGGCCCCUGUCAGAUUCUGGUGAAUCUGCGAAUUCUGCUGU

- Variants of: B1
- Procedure details: self-cleavage, relative activity (ratio to wild type); higher = more cleavage; co-transcriptional
# binarize self-cleavage: threshold 0.3 inclusive, high side MET, low side NOT MET

The examples below pair each entry with its known result.
{"Sequence change": "G11C C22A", "Group label": "NOT MET"}
{"Sequence change": "G14C U64C", "Group label": "NOT MET"}
{"Sequence change": "C35G U67G", "Group label": "MET"}
{"Sequence change": "C32G C34U", "Group label": "MET"}
{"Sequence change": "G2C C12G", "Group label": "NOT MET"}

QUERY: hey, is self-cleavage for this one >= 0.3? C12G C45G
RESULT: MET

QUERY: hey, is self-cleavage for this one >= 0.3? C22U G48U
RESULT: MET

QUERY: hey, is self-cleavage for this one >= 0.3? G2A G30A
RESULT: NOT MET

QUERY: hey, is self-cleavage for this one >= 0.3? G25U C66U
RESULT: NOT MET

QUERY: hey, is self-cleavage for this one >= 0.3? U53G G68A
RESULT: MET

QUERY: hey, is self-cleavage for this one >= 0.3? A23U U64G
RESULT: MET

QUERY: hey, is self-cleavage for this one >= 0.3? G30U U61C
RESULT: NOT MET

QUERY: hey, is self-cleavage for this one >= 0.3? G31C G47A
RESULT: NOT MET

QUERY: hey, is self-cleavage for this one >= 0.3? G2A C22U
RESULT: NOT MET

QUERY: hey, is self-cleavage for this one >= 0.3? G5C U20G
RESULT: NOT MET
